- measured-on: TPK enzyme (Homo sapiens (Human), UniProt Q9H3S4)
- Sequence (Q9H3S4 whole entry): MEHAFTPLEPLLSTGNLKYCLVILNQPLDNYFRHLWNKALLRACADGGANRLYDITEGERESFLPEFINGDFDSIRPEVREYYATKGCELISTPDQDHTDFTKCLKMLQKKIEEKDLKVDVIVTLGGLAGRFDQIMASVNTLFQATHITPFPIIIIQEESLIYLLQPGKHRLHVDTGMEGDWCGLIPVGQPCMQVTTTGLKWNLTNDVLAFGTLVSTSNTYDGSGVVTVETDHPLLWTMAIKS
- experiment-description: TPK enzyme activity test
- Type: biochemical
- test-context: calculated with the effect of DMSO on TPK enzyme activity as 100%; read-out: Emax
quantity-measured: Emax
Reply with the number and its unit after it.

{"molecular-string": "O=C(N[C@@H](Cc1ccc(F)cc1)C(=O)O)OCC1c2ccccc2-c2ccccc21", "Emax": "204%"}
{"molecular-string": "Cc1ccc2[nH]c3c(=O)n(CCC(=O)N4CCN(c5cc(Cl)ccc5Cl)CC4)cnc3c2c1", "Emax": "149%"}
{"molecular-string": "O=C(CCn1cnc2c([nH]c3ccc(F)cc32)c1=O)N1CCC(Cc2ccc(F)cc2)CC1", "Emax": "144%"}

Bench note: what Emax did "O=C1Cc2ccc(OCCCN3c4ccccc4Sc4ccccc43)cc2N1" show?
164%

Cool, now "O=C(CCn1cnc2c([nH]c3ccc(Br)cc32)c1=O)N1CCN(c2cccc(C(F)(F)F)c2)CC1"
205%

Cool, now "Cc1ccc2[nH]c3c(=O)n(CCC(=O)NCc4cccc(S(N)(=O)=O)c4)cnc3c2c1"
124%

----------
- measured-on: TPK enzyme (Homo sapiens (Human))
- experiment-description: TPK enzyme activity test
- test-context: promoting effect on TPK enzyme activity
Reported values of pEC50 for individual entries
The scale used: pEC50 is minus the common logarithm of the concentration in molar units.

{"molecule": "Cc1ccc(C)c(N2CCN(C(=O)CCn3cnc4c([nH]c5ccc(C)cc54)c3=O)CC2)c1", "pEC50": 5.86}
{"molecule": "Cc1ccc(N2CCN(C(=O)CCn3cnc4c([nH]c5ccc(C)cc54)c3=O)CC2)c(C)c1", "pEC50": 5.92}

Now turn to the next molecule.
Bench note: what pEC50 did COc1ccc2c(c1)N1CCN(c3ccccc3OC)CC1C(C(=O)NCCN1CCCCC1)C2 (stereo not drawn) show?
6.02

----------
- measured-on: TPK enzyme (Homo sapiens (Human))
- experiment-description: TPK enzyme activity test
- test-context: promoting effect on TPK enzyme activity
Counter-ions that a name gives are not always drawn.
quantity-measured: EC50

{"molecule": "COC(=O)C1CCCCN1CCCN1c2ccccc2Sc2ccccc21 (stereo not drawn) [Formate salt of 191]", "measured-on": "TPK enzyme (Homo sapiens (Human))", "data-value": "5600 nM"}

Lab note: need EC50 for "Cc1ccc2[nH]c3c(=O)n(CCC(=O)N4CCN(c5cccc(N)c5)CC4)cnc3c2c1" on TPK enzyme (Homo sapiens (Human)), anyone have it?
2620 nM

Cool, now O=c1c2c(ncn1CCCN1CCN(c3cccc(Cl)c3Cl)CC1)-c1ccccc1CCC2 [Formate salt of 222]
500 nM

----------
- measured-on: TPK enzyme (Homo sapiens (Human), UniProt Q9H3S4)
- experiment-description: TPK enzyme activity test
- Format: biochemical
- test-context: calculated with the effect of DMSO on TPK enzyme activity as 100%; read-out: Emax
Reported values of Emax for individual entries
Reply with the number and its unit after it.

Would you please look over these solved cases?
{"compound": "COc1cccc(N2CCN(C(=O)CCn3cnc4c([nH]c5ccc(C)cc54)c3=O)CC2)c1 [Compound 43]", "Emax": "137%"}
{"compound": "O=C(CCn1cnc2c([nH]c3ccc(C(F)(F)F)cc32)c1=O)N1CCN(Cc2cc(F)c(F)c(F)c2)CC1 [Compound 54]", "Emax": "170%"}
{"compound": "Cc1ccc2[nH]c3c(=O)n(CCC(=O)NCc4cc(C(F)(F)F)cc(C(F)(F)F)c4)cnc3c2c1 [Compound 66]", "Emax": "138%"}

Bench note: what Emax did Cc1ccc2[nH]c3c(=O)n(CCC(=O)N4CCN(c5ccc(Cl)c(Cl)c5)CC4)cnc3c2c1 [Compound 9] show?
147%

Cool, now COc1cccc(N2CCN(C(=O)Cn3cnc4c([nH]c5ccc(C)cc54)c3=O)CC2)c1 [Compound 45]
158%

Cool, now COc1ccc2[nH]c(=O)c3c(ccn3CCCN3CCN(c4cccc(C(F)(F)F)c4)CC3)c2c1 [Compound 210]
166%

Cool, now Cc1ccc2oc3c(=O)n(CCC(=O)N4CCN(c5cccc(C(F)(F)F)c5)CC4)cnc3c2c1 [Compound 57]
159%
